# test: NCI Yeast Anticancer Drug Screen. Data for the sgs1 mgt1 strain (AID 161);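 further: 0% = growth of cultures given vehicle only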
# testContext: S. cerevisiae sgs1 mgt1 strain, at 50.0 µM (retest, dose inferred, filed as 5.0), hits give high values
About 79,000 compounds went through this panel and 15% of them were active in at least one assay; those are over-represented in the sample as a whole. Calls of active or inactive are those of the source. No stated cut-off is given here; in the data, active means growth inhibition above about 70%; inactive means the rest.
readoutName: growth inhibition

Examples with their reported growth inhibition follow.
[[record]]
compound = "Clc1ccc(C2SCc3nc4ccccc4n32)c(Cl)c1 (stereo unspecified)"
readoutname = "growth inhibition"
observedresult = "95% (active)"

[[record]]
compound = "O=S(=O)(O)CNc1cc(Cl)cc(Cl)c1"
readoutname = "growth inhibition"
observedresult = "17% (inactive)"


// returns reported growth inhibition for input O=C(O)CCCc1ccc2ccccc2c1
6% (inactive)

c1ccc2c(c1)C[N+]1(CCCCCCC1)C2 ?
77% (active)
